MEASURED_ON: JAK2 (Homo sapiens, UniProt O60674)
Construct: 5 μl of catalytic domain recombinant Kinase enzyme+Tyr peptide substrate (Invitrogen, Calif.)
Sequence (O60674 849-1124 limits assumed): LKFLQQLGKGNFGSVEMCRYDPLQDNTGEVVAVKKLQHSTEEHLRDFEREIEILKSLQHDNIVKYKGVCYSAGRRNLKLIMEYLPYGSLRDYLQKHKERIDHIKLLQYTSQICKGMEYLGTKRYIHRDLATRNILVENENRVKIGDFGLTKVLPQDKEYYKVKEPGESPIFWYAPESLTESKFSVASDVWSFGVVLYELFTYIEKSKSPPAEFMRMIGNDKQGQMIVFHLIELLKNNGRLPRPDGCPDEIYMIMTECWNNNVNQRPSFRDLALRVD
EXPERIMENT: Z'-LYTE kinase assay, JAK2 tyrosine phosphorylation activity
pIC50: −log10 of the molar value.
READOUT_TYPE: pIC50

**Q:** May I ask what pIC50 has been recorded for `COCC(=O)Nc1cccc(Nc2ncc(C(N)=O)c(NC(C)C)n2)c1` ?
**A:** 7.00 to 8.00

**Q:** Could you do the same for `C[C@@H](Nc1nc(Nc2ccc(Cl)c(NC(=O)N3CCCCC3)c2)ncc1C(N)=O)c1ccccc1` , please?
**A:** 6.00 to 7.00

**Q:** Could you do the same for `CNC(=O)Nc1cccc(Nc2ncc(C(N)=O)c(NC3CCCC3)n2)c1` , please?
**A:** 7.00 to 8.00

----------
MEASURED_ON: TYK2 (Homo sapiens)
Construct: 5 μl of catalytic domain recombinant Kinase enzyme+Tyr peptide substrate (Invitrogen, Calif.)
Sequence (P29597 897-1176 limits assumed): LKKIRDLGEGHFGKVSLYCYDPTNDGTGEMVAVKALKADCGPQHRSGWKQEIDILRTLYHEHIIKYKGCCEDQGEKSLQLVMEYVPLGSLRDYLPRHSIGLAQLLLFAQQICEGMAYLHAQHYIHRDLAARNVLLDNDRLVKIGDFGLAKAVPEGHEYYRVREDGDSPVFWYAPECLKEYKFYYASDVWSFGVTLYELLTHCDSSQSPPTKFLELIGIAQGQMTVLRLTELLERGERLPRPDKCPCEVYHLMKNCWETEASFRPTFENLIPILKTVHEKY
EXPERIMENT: Z'-LYTE kinase assay, TYK2 tyrosine phosphorylation activity
pIC50: −log10 of the molar value.
# pIC50 annotations

Study these solved cases before continuing.
>>> df
                            chemical_smiles      reported
0  NC(=O)c1cnc(Nc2cccc(NC(=O)C3CC3)c2)nc1NCC(F)(F)F  7.00 to 8.00
1  NC(=O)c1cnc(Nc2ccc(Cl)c(NC(=O)N3CCCC3)c2)nc1NCc1cccc(Cl)c1  6.00 to 7.00
2  CC(=O)Nc1cccc(Nc2ncc(C(N)=O)c(N[C@@H](C)C(C)C)n2)c1  7.00 to 8.00
3  NC(=O)c1cnc(Nc2cccc(N(C(=O)C3CC3)C3CC3)c2)nc1NCc1ccccc1        < 6.00
4  CC(=O)Nc1cc(Nc2ncc(C(N)=O)c(Nc3cccc4nsnc34)n2)ccc1OCCN1CCCC1  7.00 to 8.00

**Q:** Requested read-out pIC50, target or system TYK2 (Homo sapiens), entry `COC[C@@H]1CCCN1C(=O)Nc1cccc(Nc2ncc(C(N)=O)c(NCc3ccccc3)n2)c1`
**A:** 8.00 to 9.00

**Q:** Could you do the same for `NC(=O)c1cnc(Nc2cccc(NC(=O)N3CCCC3)c2)nc1NCC1CC1` , please?
**A:** 8.00 to 9.00

**Q:** Could you do the same for `C[C@@H](Nc1nc(Nc2cccc(NC(=O)N3CCC(O)CC3)c2)ncc1C(N)=O)c1ccccc1` , please?
**A:** 7.00 to 8.00

----------
MEASURED_ON: JAK1 (Homo sapiens, UniProt P23458)
Construct: 5 μl of catalytic domain recombinant Kinase enzyme+Tyr peptide substrate (Invitrogen, Calif.)
Sequence (P23458 875-1153 limits assumed): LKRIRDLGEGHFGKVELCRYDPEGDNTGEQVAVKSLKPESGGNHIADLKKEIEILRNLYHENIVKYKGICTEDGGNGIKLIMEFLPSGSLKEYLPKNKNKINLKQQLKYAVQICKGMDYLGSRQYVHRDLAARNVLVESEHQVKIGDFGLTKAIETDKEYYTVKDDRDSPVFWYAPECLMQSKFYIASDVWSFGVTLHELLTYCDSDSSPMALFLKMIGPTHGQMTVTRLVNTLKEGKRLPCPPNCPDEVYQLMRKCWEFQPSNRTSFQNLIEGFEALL
EXPERIMENT: Z'-LYTE kinase assay, JAK1 tyrosine phosphorylation activity
TEST_CONDITIONS: read-out: JAK 1 IC50
READOUT_TYPE: IC50

Study these solved cases before continuing.
                                   molecule                          measured_on  readout_type        reported
0  CCC(C)CNc1nc(Nc2ccc(Cl)c(NC(=O)N3CCCC3)c2)ncc1C(N)=O (stereo not shown)  JAK1 (Homo sapiens, UniProt P23458)          IC50    10 to 100 nM
1  COC[C@@H]1CCCN1C(=O)Nc1cccc(Nc2ncc(C(N)=O)c(NCc3ccccc3)n2)c1  JAK1 (Homo sapiens, UniProt P23458)          IC50    10 to 100 nM
2  CN(C(=O)N1CCCC1)c1cccc(Nc2ncc(C(N)=O)c(NCc3ccccc3)n2)c1  JAK1 (Homo sapiens, UniProt P23458)          IC50  100 to 1000 nM

Now, please, on to the next molecule.
**Q:** May I ask what IC50 has been recorded for `CC(=O)Nc1cccc(Nc2ncc(C(N)=O)c(N(C)Cc3ccccc3)n2)c1` ?
**A:** > 1000 nM

----------
MEASURED_ON: JAK3 (Homo sapiens)
Construct: 5 μl of catalytic domain recombinant Kinase enzyme+Tyr peptide substrate (Invitrogen, Calif.); purchased Invitrogen
Sequence (P52333 822-1111 limits assumed): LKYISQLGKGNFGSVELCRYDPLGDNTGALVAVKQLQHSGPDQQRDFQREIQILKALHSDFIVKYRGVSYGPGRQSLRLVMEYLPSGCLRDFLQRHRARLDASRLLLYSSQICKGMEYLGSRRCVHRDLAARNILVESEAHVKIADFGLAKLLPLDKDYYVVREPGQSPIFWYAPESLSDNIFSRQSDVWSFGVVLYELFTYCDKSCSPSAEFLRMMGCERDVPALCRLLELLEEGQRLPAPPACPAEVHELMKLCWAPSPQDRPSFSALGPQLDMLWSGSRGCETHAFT
EXPERIMENT: Z'-LYTE kinase assay, JAK3 tyrosine phosphorylation activity
Format: biochemical
pIC50: −log10 of the molar value.
READOUT_TYPE: pIC50

Study these solved cases before continuing.
>>> print(df.to_string())
                            chemical_smiles      reported
0  C[C@@H](Nc1nc(Nc2cccc(NC(=O)N3CCCC3)c2)ncc1C(N)=O)c1ccccc1  8.00 to 9.00
1  CCn1ccc2c(Nc3nc(Nc4cccc(NC(C)=O)c4)ncc3C(N)=O)cccc21  8.00 to 9.00

**Q:** May I ask what pIC50 has been recorded for `CC(=O)Nc1cccc(Nc2ncc(C(N)=O)c(Nc3ccc(NC(=O)CC#N)cc3)n2)c1` ?
**A:** 8.00 to 9.00

----------
MEASURED_ON: JAK1 (Homo sapiens, UniProt P23458)
Construct: 5 μl of catalytic domain recombinant Kinase enzyme+Tyr peptide substrate (Invitrogen, Calif.); purchased Invitrogen
EXPERIMENT: Z'-LYTE kinase assay, JAK1 tyrosine phosphorylation activity
Format: biochemical
TEST_CONDITIONS: read-out: JAK 1 IC50
pIC50: −log10 of the molar value.
READOUT_TYPE: pIC50

Study these solved cases before continuing.
>>> print(df.to_string())
                                   molecule  readout_type      reported
0  CC(=O)Nc1cccc(Nc2ncc(C(N)=O)c(NC[C@@H](O)CO)n2)c1         pIC50  6.00 to 7.00
1  NC(=O)c1cnc(Nc2cccc(NC(=O)N3CCCC3)c2)cc1N[C@H](CO)c1ccccc1         pIC50        < 6.00
2  CC(=O)Nc1cccc(Nc2ncc(C(N)=O)c(NC3CCCCC3)n2)c1         pIC50  7.00 to 8.00
3  COCC(=O)Nc1ccc(F)c(Nc2ncc(C(N)=O)c(NCc3ccccc3)n2)c1         pIC50  6.00 to 7.00
4  NC(=O)Nc1cc(Nc2ncc(C(N)=O)c(NCc3ccccc3)n2)ccc1Cl         pIC50  6.00 to 7.00

**Q:** May I ask what pIC50 has been recorded for `NC(=O)c1cnc(Nc2ccc(F)c(NC(=O)N3CCCC3)c2)cc1NCc1cccc(F)c1` ?
**A:** 6.00 to 7.00

**Q:** Could you do the same for `CC(C)[C@@H](C)Nc1nc(Nc2ccc(Cl)c(NC(=O)N3CCCC3)c2)ncc1C(N)=O` , please?
**A:** 7.00 to 8.00

**Q:** Could you do the same for `CC(=O)Nc1cccc(Nc2ncc(C(N)=O)c(NCC(=O)N3CCCC3)n2)c1` , please?
**A:** < 6.00

----------
# IC50 annotations
MEASURED_ON: UniProtKB P43405
EXPERIMENT: Syk IC50 (Table 1; method not given)
Format: biochemical

**Q:** May I ask what IC50 has been recorded for CC(=O)Nc1cccc(Nc2ncc(C(N)=O)c(NCC3CCCN(C(C)=O)C3)n2)c1 (stereo not drawn) ?
**A:** 0.1 to 1 µM

**Q:** Could you do the same for `COCC(=O)Nc1cccc(Nc2ncc(C(N)=O)c(NC3CCCC3)n2)c1` , please?
**A:** 0.1 to 1 µM

**Q:** Could you do the same for `COCC(=O)N(C)c1cccc(Nc2ncc(C(N)=O)c(NC(C)C)n2)c1` , please?
**A:** > 1 µM

**Q:** Could you do the same for `COCCCNc1nc(Nc2cccc(NC(C)=O)c2)ncc1C(N)=O` , please?
**A:** 0.1 to 1 µM

----------
MEASURED_ON: JAK3 (Homo sapiens)
Construct: 5 μl of catalytic domain recombinant Kinase enzyme+Tyr peptide substrate (Invitrogen, Calif.)
EXPERIMENT: Z'-LYTE kinase assay, JAK3 tyrosine phosphorylation activity
pIC50: −log10 of the molar value.
# pIC50 annotations

>>> print(df.to_string())
                                   compound  readout_type      reported
0  COCC(=O)Nc1cccc(Nc2ncc(C(N)=O)c(NCc3ccc(F)cc3)n2)c1 [Example 104]         pIC50  7.00 to 8.00

**Q:** May I ask what pIC50 has been recorded for CCNC(=O)Nc1cc(Nc2ncc(C(N)=O)c(NCc3ccccc3)n2)ccc1Cl [Example 153] ?
**A:** 7.00 to 8.00

**Q:** Could you do the same for CC(=O)Nc1cccc(Nc2ncc(C(N)=O)c(NCc3ccccc3F)n2)c1 [Example 100] , please?
**A:** 8.00 to 9.00

**Q:** Could you do the same for CCC(C)CNc1nc(Nc2cccc(NC(C)=O)c2)ncc1C(N)=O (stereo not drawn) [Example 249] , please?
**A:** > 9.00

**Q:** Could you do the same for COC(=O)Nc1cccc(Nc2ncc(C(N)=O)c(NCc3ccccc3)n2)c1 [Example 30] , please?
**A:** 8.00 to 9.00

**Q:** Could you do the same for CC(=O)Nc1cccc(Nc2ncc(C(N)=O)c(N[C@H](C)C(N)=O)n2)c1 [Example 91] , please?
**A:** 7.00 to 8.00

**Q:** Could you do the same for NC(=O)c1cnc(Nc2cccc(NC(=O)N3CCCC3)c2)nc1NCC(F)(F)F [Example 136] , please?
**A:** 7.00 to 8.00

**Q:** Could you do the same for NC(=O)Nc1cccc(Nc2ncc(C(N)=O)c(NC3CCCC3)n2)c1 [Example 33] , please?
**A:** 8.00 to 9.00

**Q:** Could you do the same for NC(=O)c1cnc(Nc2cccc(NC(=O)N3CC[C@@H](F)C3)c2)nc1NCc1ccccc1 [Example 283] , please?
**A:** > 9.00
